We begin with a simple list: items and their reported hERG current change (%, negative = inhibition) at 10uM.
Molecular target: human ether-à-go-go-related gene (hERG) potassium channel (human);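 also: peak tail current of the secondary pulse compared with the same well before compound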
Sequence (Q12809 whole entry, looked up): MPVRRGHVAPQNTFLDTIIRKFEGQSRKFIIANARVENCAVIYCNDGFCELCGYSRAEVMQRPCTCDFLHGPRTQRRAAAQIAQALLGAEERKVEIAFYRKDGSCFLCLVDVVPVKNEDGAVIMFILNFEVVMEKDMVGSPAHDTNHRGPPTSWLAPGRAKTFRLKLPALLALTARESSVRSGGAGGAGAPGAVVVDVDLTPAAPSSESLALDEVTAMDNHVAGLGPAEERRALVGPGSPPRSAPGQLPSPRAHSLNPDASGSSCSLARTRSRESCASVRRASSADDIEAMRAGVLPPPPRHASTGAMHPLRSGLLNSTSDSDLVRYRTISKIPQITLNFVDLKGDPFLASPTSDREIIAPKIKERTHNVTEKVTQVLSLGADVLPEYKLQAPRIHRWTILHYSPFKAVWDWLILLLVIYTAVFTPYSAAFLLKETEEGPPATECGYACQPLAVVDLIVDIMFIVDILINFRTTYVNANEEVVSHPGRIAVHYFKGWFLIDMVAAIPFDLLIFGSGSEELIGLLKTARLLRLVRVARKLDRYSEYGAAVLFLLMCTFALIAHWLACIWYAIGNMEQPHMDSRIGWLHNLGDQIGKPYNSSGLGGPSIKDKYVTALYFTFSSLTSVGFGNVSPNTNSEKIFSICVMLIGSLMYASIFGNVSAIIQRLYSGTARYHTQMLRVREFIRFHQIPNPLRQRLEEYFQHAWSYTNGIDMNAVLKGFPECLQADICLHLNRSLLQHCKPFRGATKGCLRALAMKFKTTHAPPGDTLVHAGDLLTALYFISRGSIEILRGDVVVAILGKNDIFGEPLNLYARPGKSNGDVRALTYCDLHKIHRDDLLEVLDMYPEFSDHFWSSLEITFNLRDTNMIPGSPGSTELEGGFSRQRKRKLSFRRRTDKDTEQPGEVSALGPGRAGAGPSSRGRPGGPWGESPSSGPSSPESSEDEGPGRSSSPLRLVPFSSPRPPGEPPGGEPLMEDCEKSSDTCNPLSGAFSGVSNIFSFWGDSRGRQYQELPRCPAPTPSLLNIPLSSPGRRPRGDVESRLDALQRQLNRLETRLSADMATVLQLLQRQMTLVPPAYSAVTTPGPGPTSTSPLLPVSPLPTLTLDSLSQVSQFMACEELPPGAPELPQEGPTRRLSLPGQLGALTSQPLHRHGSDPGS
Assay: primary screen, population patch clamp on CHO cells stably expressing hERG; higher = less effect of the substance
Experimental: Briefly, Chinese hamster ovary (CHO) cells stably expressing the hERG channel were dislodged from tissue culture flasks and dispensed into PPC plates. […] During the recording, background leak currents were estimated by a 100 ms step to -80 mV from an initial holding potential of -70 mV and subtracted from the subsequent current measurement. The campaign was conducted in two phases using slight differences in recording protocol. […]
Hit rate of the full screen: of about 310,000 compounds, about 14,000 (4.5%) showed an effect of 50% or more. Effects have a minus sign here. The sample holds strong results, similar compounds and a random draw of the others, so the mix is not that of the screen.
Outcome measure: hERG current change (%, negative = inhibition) at 10uM (%)

| Compound | Recorded result |
| --- | --- |
| CCC1=NN2C(=N)/C(=C/c3cc(C)n(-c4ccccc4)c3C)C(=O)N=C2S1 | 16.2 |
| CCc1nc(SCC(=O)Nc2nnc(CC)s2)c2c(C)c(C)sc2n1 | 8.99 |
| COc1ccc(C2/C(=C(/O)c3ccc(Br)cc3)C(=O)C(=O)N2C)cc1 (centres unmarked) | -12.7 |
| Cc1nn(C(C)C(=O)Nc2sc3c(c2C#N)CCCC3)c(C)c1[N+](=O)[O-] (centres unmarked) | 12.1 |
| O=C(NCC1CCC(C(=O)O)CC1)OCc1ccccc1 (centres unmarked) | 3.13 |
